# assay_overview: Rat PK study: concentration of compounds in large intestine tissue and plasma
# Format: in vivo
# measurement_context: male, SD, plasma, 3 mg/kg oral, non-fasted, read-out: AUC: area under the plasma test compound concentration-time curve (converted)
readout_name: AUC (ng·h/mL)

Illustrative cases are given below, each with its answer.
molecular_string | readout_name | result
O=C(O)c1ccc(-c2ccc(-n3c(=O)n([C@H]4CCN(Cc5cc(C(=O)O)ccn5)C4)c4ncccc43)cn2)cc1 | AUC | 5.23
Cn1ccnc1CN1CC[C@H](n2c(=O)n(-c3ccc(-c4ccc(C(=O)O)cc4)cc3O)c3cccnc32)C1 | AUC | 34.8
Cn1c(C(=O)O)cnc1CN1CC[C@H](n2c(=O)n(-c3ccc(-c4ccc(C(=O)O)cc4)c(O)c3)c3cccnc32)C1 | AUC | 1.27
O=C(O)c1ccc(-c2ccc(-n3c(=O)n([C@H]4CCN(Cc5cc(C(=O)O)ccn5)C4)c4ncccc43)cc2)cc1 | AUC | 35.2
Cn1ccnc1CN1CC[C@H](n2c(=O)n(-c3ccc(-c4ccc(C(=O)O)cc4)cc3)c3cccnc32)C1 | AUC | 334
Cn1c(C(=O)O)cnc1CN1CC[C@H](n2c(=O)n(-c3ccc(-c4ccc(C(=O)O)cc4)cc3)c3cccnc32)C1 | AUC | 21.5

(A) O=C(O)c1ccc(-c2ccc(-n3c(=O)n([C@H]4CCN(Cc5cc(C(=O)O)ccn5)C4)c4ncccc43)cc2O)cc1
(B) Cn1c(C(=O)O)cnc1CN1CC[C@H](n2c(=O)n(-c3ccc(-c4ccc(C(=O)O)cc4)cc3O)c3cccnc32)C1
Exam item: Between the two listed entries A and B , which has its AUC at the higher number? Identify your selection by its label.
Marked response: B

###

Kp at 8 h by entry:
# assay_overview: Rat PK study: concentration of compounds in large intestine tissue and plasma
# Format: in vivo
# measurement_context: male, SD, large intestine tissue / plasma, 3 mg/kg oral, 8 hours, read-out: C/P: ratio of the above Colon and Plasma

molecular_string | result
Cn1ccnc1CN1CC[C@H](n2c(=O)n(-c3ccc(-c4ccc(C(=O)O)cc4)cc3O)c3cccnc32)C1 | 71
O=C(O)c1ccc(-c2ccc(-n3c(=O)n([C@H]4CCN(Cc5cc(C(=O)O)ccn5)C4)c4ncccc43)cc2O)cc1 | > 87
Cn1c(C(=O)O)cnc1CN1CC[C@H](n2c(=O)n(-c3ccc(-c4ccc(C(=O)O)cc4)cc3)c3cccnc32)C1 | > 54
Cn1c(C(=O)O)cnc1CN1CC[C@H](n2c(=O)n(-c3ccc(-c4ccc(C(=O)O)cc4)cc3O)c3cccnc32)C1 | > 201
Cn1c(C(=O)O)cnc1CN1CC[C@H](n2c(=O)n(-c3ccc(-c4ccc(C(=O)O)cc4)nc3)c3cccnc32)C1 | > 164
Cn1c(C(=O)O)cnc1CN1CC[C@H](n2c(=O)n(-c3ccc(-c4ccc(C(=O)O)cc4)c(O)c3)c3cccnc32)C1 | > 99
O=C(O)c1ccc(-c2ccc(-n3c(=O)n([C@H]4CCN(Cc5cc(C(=O)O)ccn5)C4)c4ncccc43)cc2)cc1 | 42
Cn1ccnc1CN1CC[C@H](n2c(=O)n(-c3ccc(-c4ccc(C(=O)O)cc4)c(O)c3)c3cccnc32)C1 | > 209

Exam item: Write down Kp at 8 h measured for item Cn1ccnc1CN1CC[C@H](n2c(=O)n(-c3ccc(-c4ccc(C(=O)O)cc4)cc3)c3cccnc32)C1
Marked response: 18

Exam item: Write down Kp at 8 h measured for item O=C(O)c1ccc(-c2ccc(-n3c(=O)n([C@H]4CCN(Cc5cc(C(=O)O)ccn5)C4)c4ncccc43)cn2)cc1
Marked response: > 174

###

# system: human PHD2184-418 (Homo sapiens (Human))
# Sequence (Q9GZT9 184-418): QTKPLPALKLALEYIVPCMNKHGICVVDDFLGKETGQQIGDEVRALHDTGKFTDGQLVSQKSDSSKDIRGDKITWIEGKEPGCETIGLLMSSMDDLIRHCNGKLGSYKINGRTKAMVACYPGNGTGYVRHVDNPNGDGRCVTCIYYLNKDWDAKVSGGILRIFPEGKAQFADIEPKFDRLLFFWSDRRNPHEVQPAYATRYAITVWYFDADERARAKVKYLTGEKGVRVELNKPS
# assay_overview: PHD2 inhibitory test (fluorescence polarization, binding between PHD2 and HIF-1α)
# measurement_context: read-out: inhibition rate at the compound concentration of 100 μM (numerals with *); compound concentration 100 μM
Where a name gives a salt, the structure may show the parent alone.
readout_name: inhibition at 100 µM (%)

compound | system | inhibition at 100 µM / %
Cn1cnc(CN2CC[C@H](n3c(=O)n(-c4ccc(-c5ccccc5)cc4)c4cccnc43)C2)c1 [Example 6, hydrochloride] | human PHD2184-418 (Homo sapiens (Human)) | 34
Cc1cccnc1CN1CC[C@H](n2c(=O)n(-c3ccc(-c4ccccc4C(F)(F)F)cc3)c3cccnc32)C1 [Example 33] | human PHD2184-418 (Homo sapiens (Human)) | 41
O=c1n(-c2ccc(-c3ccccc3)cc2)c2cccnc2n1[C@H]1CCN(Cc2ncccc2O)C1 [Example 8] | human PHD2184-418 (Homo sapiens (Human)) | 29
Cc1cccnc1CN1CC[C@H](n2c(=O)n(-c3ccc(C(=O)O)cc3)c3cccnc32)C1 [Example 21, hydrochloride] | human PHD2184-418 (Homo sapiens (Human)) | 39

###

# assay_overview: Rat PK study: concentration of compounds in large intestine tissue and plasma
# Type: in vivo
# measurement_context: male, SD, plasma, 3 mg/kg oral, 8 hours, read-out: Plasma: plasma test compound concentration after 8 hours
readout_name: concentration at 8 h (ng/mL)

(1) Cn1ccnc1CN1CC[C@H](n2c(=O)n(-c3ccc(-c4ccc(C(=O)O)cc4)cc3O)c3cccnc32)C1
(2) Cn1ccnc1CN1CC[C@H](n2c(=O)n(-c3ccc(-c4ccc(C(=O)O)cc4)cc3)c3cccnc32)C1
(3) O=C(O)c1ccc(-c2ccc(-n3c(=O)n([C@H]4CCN(Cc5cc(C(=O)O)ccn5)C4)c4ncccc43)cc2)cc1
Exam item: Order the entries by their reported concentration at 8 h, beginning at the minimum. # format: label list in the order the request specifies
Marked response: 3, 1, 2
(3: 2 ng/mL, 1: 3 ng/mL, 2: 18 ng/mL)

###

# system: human PHD2184-418 (Homo sapiens (Human))
pIC50: −log10 of the molar value. Counter-ions that a name gives are not always drawn.
readout_name: pIC50

(P) Cn1c(C(=O)O)cnc1CN1C[C@@H](F)[C@H](n2c(=O)n(-c3ccc(-c4ccc(C(=O)O)cc4)cc3)c3cccnc32)C1
(Q) Cn1ccnc1CN1CC[C@H](n2c(=O)n(-c3ccccc3)c3cccnc32)C1 [Example 11, hydrochloride]
Exam item: Quick one: lower pIC50, P or Q ? Identify your selection by its label.
Marked response: Q

(I) Cn1c(C(=O)O)cnc1CN1CC[C@H](n2c(=O)n(-c3ccc(-c4ccc(C(=O)O)cc4)cc3)c3cc(C(F)(F)F)cnc32)C1
(II) COc1ccc(-n2c(=O)n([C@H]3CCN(Cc4cc(C(=O)O)ccn4)C3)c3ncccc32)cc1
(III) Cn1ccnc1CN1CC[C@H](n2c(=O)n(-c3ccc(-c4ccc(C(=O)O)cc4)c(O)c3)c3cccnc32)C1
Exam item: Ranking field: pIC50; order: falling. # format: label list in the order the request specifies
Marked response: I, III, II
(I: 6.89, III: 6.12, II: 5.71)

###

# assay_overview: Rat PK study: concentration of compounds in large intestine tissue and plasma
# Format: in vivo
# measurement_context: male, SD, plasma, 3 mg/kg oral, 8 hours, read-out: Plasma: plasma test compound concentration after 8 hours
readout_name: concentration at 8 h

molecular_string | result
Cn1c(C(=O)O)cnc1CN1CC[C@H](n2c(=O)n(-c3ccc(-c4ccc(C(=O)O)cc4)cc3)c3cccnc32)C1 | < 1 ng/mL
Cn1c(C(=O)O)cnc1CN1CC[C@H](n2c(=O)n(-c3ccc(-c4ccc(C(=O)O)cc4)cc3O)c3cccnc32)C1 | < 1 ng/mL

Now for a further compound.
Exam item: Write down concentration at 8 h measured for item Cn1ccnc1CN1CC[C@H](n2c(=O)n(-c3ccc(-c4ccc(C(=O)O)cc4)c(O)c3)c3cccnc32)C1
Marked response: < 1 ng/mL

###

# assay_overview: Rat PK study: concentration of compounds in large intestine tissue and plasma
# Type: in vivo
# measurement_context: male, SD, large intestine tissue (distal large intestine), 3 mg/kg oral, 8 hours, read-out: Colon: concentrations of the test compound in large intestine tissue after 8 hours
# Procedure: Test Example 3 Concentration of Compounds in Large Intestine Tissue Test compounds (3 mg/kg/5 mL) prepared by 0.05% methylcellulose were orally administered to non-fasted rats (SD, 8-weeks-old, male, Japan SLC). Blood samples were collected from jugular vein at 0.25, 0.5, 1, 2, 4, 6 and 8 hours after the administration. […] The concentrations of the test compound in large intestine tissue and plasma were measured through a quantitative analysis using liquid chromatography-mass spectrometry (LC/MS).
readout_name: concentration at 8 h (ng/g)

molecular_string | concentration at 8 h, ng/g
O=C(O)c1ccc(-c2ccc(-n3c(=O)n([C@H]4CCN(Cc5cc(C(=O)O)ccn5)C4)c4ncccc43)cc2)cc1 | 84
Cn1c(C(=O)O)cnc1CN1CC[C@H](n2c(=O)n(-c3ccc(-c4ccc(C(=O)O)cc4)cc3O)c3cccnc32)C1 | 201
Cn1ccnc1CN1CC[C@H](n2c(=O)n(-c3ccc(-c4ccc(C(=O)O)cc4)cc3O)c3cccnc32)C1 | 214
O=C(O)c1ccc(-c2ccc(-n3c(=O)n([C@H]4CCN(Cc5cc(C(=O)O)ccn5)C4)c4ncccc43)cc2O)cc1 | 87
Cn1c(C(=O)O)cnc1CN1CC[C@H](n2c(=O)n(-c3ccc(-c4ccc(C(=O)O)cc4)nc3)c3cccnc32)C1 | 164
Cn1ccnc1CN1CC[C@H](n2c(=O)n(-c3ccc(-c4ccc(C(=O)O)cc4)c(O)c3)c3cccnc32)C1 | 209

(a) O=C(O)c1ccc(-c2ccc(-n3c(=O)n([C@H]4CCN(Cc5cc(C(=O)O)ccn5)C4)c4ncccc43)cn2)cc1
(b) Cn1ccnc1CN1CC[C@H](n2c(=O)n(-c3ccc(-c4ccc(C(=O)O)cc4)cc3)c3cccnc32)C1
(c) Cn1c(C(=O)O)cnc1CN1CC[C@H](n2c(=O)n(-c3ccc(-c4ccc(C(=O)O)cc4)c(O)c3)c3cccnc32)C1
(d) Cn1c(C(=O)O)cnc1CN1CC[C@H](n2c(=O)n(-c3ccc(-c4ccc(C(=O)O)cc4)cc3)c3cccnc32)C1
Exam item: Ranking field: concentration at 8 h; order: falling. # format: label list in the order the request specifies
Marked response: b, a, c, d
(b: 317 ng/g, a: 174 ng/g, c: 99 ng/g, d: 54 ng/g)
